Target: HIF PHD2 (Homo sapiens)
# reported log10 IC50; entries follow
Parameter value (number): base-10 log of IC50 in nM.

Input line: Provide measured log10 IC50 value, entry: COc1ccc(-c2ccc3c(c2)C(O)=C(C(=O)NCC(=O)O)C3=O)cc1
Output line: 1.34

###

Entries below carry reported log10 of IC50 on HIF PHD2 (Homo sapiens, UniProt Q9GZT9).
Sequence (Q9GZT9 whole entry): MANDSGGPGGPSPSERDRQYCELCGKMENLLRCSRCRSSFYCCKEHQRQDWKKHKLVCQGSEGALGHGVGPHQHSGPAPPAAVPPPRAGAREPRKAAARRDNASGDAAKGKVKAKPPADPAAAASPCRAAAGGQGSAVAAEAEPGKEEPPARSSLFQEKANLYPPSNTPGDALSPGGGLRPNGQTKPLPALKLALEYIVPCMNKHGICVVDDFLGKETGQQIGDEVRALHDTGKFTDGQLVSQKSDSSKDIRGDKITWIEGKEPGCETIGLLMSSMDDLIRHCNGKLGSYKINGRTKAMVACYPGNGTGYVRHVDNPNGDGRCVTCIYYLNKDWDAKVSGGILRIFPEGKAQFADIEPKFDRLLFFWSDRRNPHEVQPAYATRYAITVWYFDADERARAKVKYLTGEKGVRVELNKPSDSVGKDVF
The figures below represent log10 of IC50, where IC50 is stated in nM.

Input line: # lookup: HIF PHD2 (Homo sapiens, UniProt Q9GZT9) log10 of IC50, key = O=C(O)CNC(=O)C1=C(O)c2cc(Br)ccc2C1=O
Output line: 1.31

Input line: Provide the reported log10 of IC50 (system: HIF PHD2 (Homo sapiens, UniProt Q9GZT9)) for O=C(O)CNC(=O)C1=C(O)c2c(Cl)cccc2C1=O
Output line: 0.98

Input line: Please tell me the measured log10 of IC50 for O=C(O)CNC(=O)C1=C(O)c2c(I)cccc2C1=O ; system: HIF PHD2 (Homo sapiens, UniProt Q9GZT9).
Output line: 1.35

Input line: State recorded log10 of IC50 with HIF PHD2 (Homo sapiens, UniProt Q9GZT9), entry O=C(O)CNC(=O)C1=C(O)c2c(Cl)ccc(Cl)c2C1=O , no comment.
Output line: 1.67

###

What follows is a record of IC50 for HIF PHD2 (Homo sapiens, UniProt Q9GZT9).
Your answer is read as nM, so omit the unit and give the number.

Examples from the recorded data:
Query smiles	IC50 / nM
O=C(O)CNC(=O)C1=C(O)c2ccc(-c3ccccc3Cl)cc2C1=O	3.6
O=C(O)CNC(=O)C1=C(O)c2cc(F)ccc2C1=O	50.1

Input line: Give reported IC50 for O=C(O)CNC(=O)C1=C(O)c2c(cccc2-c2cccc(Cl)c2)C1=O (HIF PHD2 (Homo sapiens, UniProt Q9GZT9))
Output line: 3
